Target: T1, wild type full length EGFR purified from A431 cells (human, UniProt P00533 25-1210)
T1 construct: mature; Bought; coated on ELISA wells; also called full length EGFR receptor antigen; Sigma E3641
Method: competition ELISA, competitor Ab-1
Set-up: concentration or dose not given beside the values
Parameter measured: % inhibition (%)
Express the result in % but write the number alone.

* antibody 1261 (antibody, human IgG1, kappa, V domains shown, Chimeric IgG1 kappa) VH: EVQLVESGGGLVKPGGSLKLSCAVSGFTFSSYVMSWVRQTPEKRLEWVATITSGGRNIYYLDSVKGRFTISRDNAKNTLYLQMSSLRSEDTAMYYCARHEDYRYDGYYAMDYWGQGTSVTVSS VL: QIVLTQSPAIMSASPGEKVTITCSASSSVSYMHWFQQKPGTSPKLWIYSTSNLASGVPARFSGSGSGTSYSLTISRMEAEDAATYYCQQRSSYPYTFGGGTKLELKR | 3

Switching to the query record.
response.value for antibody 1042 (antibody, human IgG1, kappa, V domains shown, Chimeric IgG1 kappa; RA- left out of the VH entry) VH: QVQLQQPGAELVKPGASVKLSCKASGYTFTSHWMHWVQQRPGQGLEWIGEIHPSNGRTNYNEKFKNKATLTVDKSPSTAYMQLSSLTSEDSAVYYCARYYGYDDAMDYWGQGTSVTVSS VL: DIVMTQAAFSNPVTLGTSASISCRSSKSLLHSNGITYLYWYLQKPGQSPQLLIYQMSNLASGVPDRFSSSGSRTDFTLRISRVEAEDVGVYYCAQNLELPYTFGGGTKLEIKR (field: % inhibition) = 24
